- system: Indoleamine 2,3-dioxygenase 1 (Homo sapiens) (UniProt P14902)
- Sequence (P14902 whole entry, looked up): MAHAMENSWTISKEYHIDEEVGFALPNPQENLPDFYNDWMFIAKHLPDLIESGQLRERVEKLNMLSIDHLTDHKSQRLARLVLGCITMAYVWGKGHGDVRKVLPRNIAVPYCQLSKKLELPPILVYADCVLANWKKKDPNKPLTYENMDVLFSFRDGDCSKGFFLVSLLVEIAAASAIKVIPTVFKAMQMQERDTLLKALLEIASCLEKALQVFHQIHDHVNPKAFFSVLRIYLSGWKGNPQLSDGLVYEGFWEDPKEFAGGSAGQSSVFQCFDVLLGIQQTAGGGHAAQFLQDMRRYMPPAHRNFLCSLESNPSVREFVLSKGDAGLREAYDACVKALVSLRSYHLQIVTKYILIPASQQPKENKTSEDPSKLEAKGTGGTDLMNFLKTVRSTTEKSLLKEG
- assay_info: Inhibition of human IDO1 expressed in HEK293-EBNA assessed as reduction in kynurenine formation using tryptophan as substrate at 3.12 uM incubated for 24 hrs by HPLC analysis relative to control
- Type: cell-based
Rule: 1.0 for inhibition not less than 10%, 0.0 for anything less.

Exam item: decide whether the reported inhibition for O=C1c2c[nH]nc2C2=NCCc3c[nH]c1c32 is at least 10%. 0.0

Query Cc1ccc(S(=O)(=O)n2ccc3c2C(=O)C=C(NCCc2c[nH]c4ccccc24)C3=O)cc1 next 1.0

Repeat with Cc1ccc(S(=O)(=O)n2cc3c4c2C(=O)c2c(-c5ccccc5)n[nH]c2C4=NCC3)cc1 1.0

Consider next the compound Cc1ccc(S(=O)(=O)n2cc3c4c2C(=O)c2[nH]nc(N5C(=O)C(O)c6ccccc65)c2C4=NCC3)cc1 (configuration not stated) in the same way. 0.0

Now the compound Cc1ccc(S(=O)(=O)n2ccc3c2C(=O)c2c(-c4c[nH]c5ccccc45)cn(C)c2C3=O)cc1 1.0

###

- system: Tryptophan 2,3-dioxygenase (Homo sapiens)
- assay_info: Inhibition of human TDO expressed in HEK293-EBNA cells assessed as reduction in kynurenine formation using tryptophan as substrate at 25 uM incubated for 24 hrs by HPLC analysis relative to control
- Assay type: cell-based
measurement_label: inhibition (%)
Reply with just the number (in %).

Need inhibition of Cc1ccc(S(=O)(=O)n2ccc3c2C(=O)c2[nH]cc4c2C3=NCC4)cc1 , thanks. 3

Another compound: Cc1ccc(S(=O)(=O)n2cc3c4c2C(=O)c2cn[nH]c2C4=NCC3)cc1 15

How about O=C1c2[nH]cc3c2C(=NCC3)c2c(-c3ccccc3)n[nH]c21 ? 5

Request: O=C1c2c[nH]nc2C2=NCCc3c[nH]c1c32 9

Then Cc1ccc(S(=O)(=O)n2cc3c4c2C(=O)c2c(-c5ccccc5)n[nH]c2C4=NCC3)cc1 ? 21

Next: Cc1ccc(S(=O)(=O)n2cc3c4c2C(=O)c2n[nH]cc2C4=NCC3)cc1 7

Follow-up entry: Cc1ccc(S(=O)(=O)n2ccc3c2C(=O)c2c(-c4c[nH]c5ccccc45)cn(C)c2C3=O)cc1 -8

Same question, Cc1ccc(S(=O)(=O)n2cc3c4c2C(=O)c2[nH]nc(N5C(=O)C(O)c6ccccc65)c2C4=NCC3)cc1 (stereo not given) this time 27

Another: Cc1ccc(S(=O)(=O)n2ccc3c2C(=O)c2[nH]c(C(=O)c4c[nH]c5ccccc45)c(C(=O)c4c[nH]c5ccccc45)c2C3=O)cc1 -9

Input Cc1ccc(S(=O)(=O)n2cc3c4c2C(=O)c2c(cnn2C)C4=NCC3)cc1 35

Also check Cc1ccc(S(=O)(=O)n2cc3c4c2C(=O)c2[nH]nc(-c5ccccc5)c2C4=NCC3)cc1 -10

Here is the next compound: Cc1ccc(S(=O)(=O)n2ccc3c2C(=O)c2c(c(-c4c[nH]c5ccccc45)cn2C)C3=O)cc1 -3

And what about the compound Cc1ccc(S(=O)(=O)n2ccc3c2C(=O)C(NCCc2c[nH]c4ccccc24)=CC3=O)cc1 ? 0

Now try Cc1ccc(S(=O)(=O)n2ccc3c2C(=O)C=C(NCCc2c[nH]c4ccccc24)C3=O)cc1 . 67

And Cc1ccc(S(=O)(=O)n2ccc3c2C(=O)c2[nH]c(C(=O)c4ccccc4)c(C(=O)c4ccccc4)c2C3=O)cc1 ? 28

###

- system: Tryptophan 2,3-dioxygenase (Homo sapiens)
- assay_info: Inhibition of human TDO expressed in HEK293-EBNA cells assessed as reduction in kynurenine formation using tryptophan as substrate at 6.25 uM incubated for 24 hrs by HPLC analysis relative to control
- Assay type: cell-based
Could you please report measured inhibition for the items listed next?
Return type: number; implicit unit %.

Endpoint output: inhibition of Cc1ccc(S(=O)(=O)n2cc3c4c2C(=O)c2cn[nH]c2C4=NCC3)cc1 . Value? 19

Note, next up: Cc1ccc(S(=O)(=O)n2ccc3c2C(=O)c2[nH]c(C(=O)c4ccccc4)c(C(=O)c4ccccc4)c2C3=O)cc1 27

And for O=C1c2c[nH]nc2C2=NCCc3c[nH]c1c32 ? 8

Also, Cc1ccc(S(=O)(=O)n2ccc3c2C(=O)c2c(c(-c4c[nH]c5ccccc45)cn2C)C3=O)cc1 please. 3

Same for Cc1ccc(S(=O)(=O)n2ccc3c2C(=O)C=C(NCCc2c[nH]c4ccccc24)C3=O)cc1 12

Repeat with Cc1ccc(S(=O)(=O)n2cc3c4c2C(=O)c2[nH]nc(N5C(=O)C(O)c6ccccc65)c2C4=NCC3)cc1 (stereo not given) 5

Try Cc1ccc(S(=O)(=O)n2ccc3c2C(=O)c2c(-c4c[nH]c5ccccc45)cn(C)c2C3=O)cc1 next. 2

Repeat with Cc1ccc(S(=O)(=O)n2cc3c4c2C(=O)c2c(-c5ccccc5)n[nH]c2C4=NCC3)cc1 13

Do the same for Cc1ccc(S(=O)(=O)n2cc3c4c2C(=O)c2c(cnn2C)C4=NCC3)cc1 please 18

Follow-up entry: O=C1c2[nH]cc3c2C(=NCC3)c2c(-c3ccccc3)n[nH]c21 5

Cool, now Cc1ccc(S(=O)(=O)n2cc3c4c2C(=O)c2[nH]nc(-c5ccccc5)c2C4=NCC3)cc1 5

Same question, Cc1ccc(S(=O)(=O)n2cc3c4c2C(=O)c2n[nH]cc2C4=NCC3)cc1 this time 14

Now try Cc1ccc(S(=O)(=O)n2ccc3c2C(=O)c2[nH]cc4c2C3=NCC4)cc1 . -7

Repeat for the following compound: Cc1ccc(S(=O)(=O)n2ccc3c2C(=O)c2[nH]c(C(=O)c4c[nH]c5ccccc45)c(C(=O)c4c[nH]c5ccccc45)c2C3=O)cc1 1

Cc1ccc(S(=O)(=O)n2ccc3c2C(=O)C(NCCc2c[nH]c4ccccc24)=CC3=O)cc1 , same question. -3

###

- system: Indoleamine 2,3-dioxygenase 1 (Homo sapiens) (UniProt P14902)
- assay_info: Inhibition of human IDO1 expressed in HEK293-EBNA cells assessed as reduction in kynurenine formation using tryptophan as substrate at 25 uM incubated for 24 hrs by HPLC analysis relative to control
- Assay type: cell-based
Please provide measured inhibition for the entries that follow.
API: value field is a number in %; no unit string.

What inhibition appears in the records for this compound with Indoleamine 2,3-dioxygenase 1 (Homo sapiens) (UniProt P14902)? Cc1ccc(S(=O)(=O)n2cc3c4c2C(=O)c2[nH]nc(N5C(=O)C(O)c6ccccc65)c2C4=NCC3)cc1 (centres undefined) 14

Same lookup for O=C1c2[nH]cc3c2C(=NCC3)c2c(-c3ccccc3)n[nH]c21 , please. 5

Can you handle Cc1ccc(S(=O)(=O)n2ccc3c2C(=O)c2[nH]c(C(=O)c4c[nH]c5ccccc45)c(C(=O)c4c[nH]c5ccccc45)c2C3=O)cc1 next? 24

Now consider Cc1ccc(S(=O)(=O)n2cc3c4c2C(=O)c2n[nH]cc2C4=NCC3)cc1 and answer again. 6

###

- system: Tryptophan 2,3-dioxygenase (Homo sapiens)
- assay_info: Inhibition of human TDO expressed in HEK293-EBNA cells assessed as reduction in kynurenine formation using tryptophan as substrate at 12.5 uM incubated for 24 hrs by HPLC analysis relative to control
- Format: cell-based
measurement_label: inhibition (%)
The response must be a number in % with no trailing unit.

Looking for the measured inhibition of Cc1ccc(S(=O)(=O)n2ccc3c2C(=O)C(NCCc2c[nH]c4ccccc24)=CC3=O)cc1 , can you help? 0

Also Cc1ccc(S(=O)(=O)n2cc3c4c2C(=O)c2c(cnn2C)C4=NCC3)cc1 ? 21

# repeat for Cc1ccc(S(=O)(=O)n2cc3c4c2C(=O)c2[nH]nc(-c5ccccc5)c2C4=NCC3)cc1 2

And for Cc1ccc(S(=O)(=O)n2cc3c4c2C(=O)c2cn[nH]c2C4=NCC3)cc1 ? 23

Would you kindly repeat that for Cc1ccc(S(=O)(=O)n2ccc3c2C(=O)C=C(NCCc2c[nH]c4ccccc24)C3=O)cc1 ? 31

###

- assay_info: Cytotoxicity against human HEK293-EBNA cells assessed as cell viability at 3.12 uM by MTS/PMS assay
- Type: cell-based
- assay_conditions: read-out: Activity
Would you kindly list viability at 3.12 µM for each of these compounds?
A number alone suffices; assume %.

# lookup: viability at 3.12 µM of O=C1c2c[nH]nc2C2=NCCc3c[nH]c1c32 93

And then Cc1ccc(S(=O)(=O)n2ccc3c2C(=O)c2c(-c4c[nH]c5ccccc45)cn(C)c2C3=O)cc1 , what is it? 100

And for Cc1ccc(S(=O)(=O)n2cc3c4c2C(=O)c2[nH]nc(N5C(=O)C(O)c6ccccc65)c2C4=NCC3)cc1 (centres undefined) ? 104

Quick one: Cc1ccc(S(=O)(=O)n2ccc3c2C(=O)C(NCCc2c[nH]c4ccccc24)=CC3=O)cc1 98

Same thing, different compound: Cc1ccc(S(=O)(=O)n2ccc3c2C(=O)c2[nH]cc4c2C3=NCC4)cc1 107

Follow-up item: Cc1ccc(S(=O)(=O)n2cc3c4c2C(=O)c2[nH]nc(-c5ccccc5)c2C4=NCC3)cc1 91

Ok, now Cc1ccc(S(=O)(=O)n2ccc3c2C(=O)c2c(c(-c4c[nH]c5ccccc45)cn2C)C3=O)cc1 98

Now the compound Cc1ccc(S(=O)(=O)n2ccc3c2C(=O)c2[nH]c(C(=O)c4c[nH]c5ccccc45)c(C(=O)c4c[nH]c5ccccc45)c2C3=O)cc1 87

Now this one: Cc1ccc(S(=O)(=O)n2ccc3c2C(=O)C=C(NCCc2c[nH]c4ccccc24)C3=O)cc1 75
